The values you see were collected from patent US8362031B2.

Tested on: Salmonella Typhimurium TA 100
Experiment: Ames test for mutagenicity (plate assay, colony count)
Details: (−)S9 mix, 1 mg/pl., 48 hours at 37° C.
parameter: Ames test (−)S9 1 mg/pl.

// solved cases for Ames test (−)S9 1 mg/pl. follow
{"compound": "COC(=O)c1nn(Cc2ccc(Cl)cc2Cl)c2cc(C(F)(F)F)cnc12 [JWS-1-228]", "parameter": "Ames test (−)S9 1 mg/pl.", "result": "Pass"}
{"compound": "Cc1ccc2c(C(=O)NN)nn(Cc3ccc(Cl)cc3Cl)c2c1 [TH-2-179]", "parameter": "Ames test (−)S9 1 mg/pl.", "result": "Pass"}
{"compound": "Cc1ccc2c(/C=C/C(=O)O)nn(Cc3ccc(Cl)cc3Cl)c2c1 [TH-2-192]", "parameter": "Ames test (−)S9 1 mg/pl.", "result": "Pass"}
{"compound": "COc1ccc2c(n1)c(C(=O)NN)nn2Cc1ccc(Cl)cc1Cl [JWS-1-146]", "parameter": "Ames test (−)S9 1 mg/pl.", "result": "Pass"}
{"compound": "COC(=O)c1nn(Cc2ccc(Cl)cc2Cl)c2cc(F)ccc12 [JWS-1-158]", "parameter": "Ames test (−)S9 1 mg/pl.", "result": "Pass"}

Give recorded Ames test (−)S9 1 mg/pl.. NNC(=O)c1nn(Cc2ccc(Cl)cc2Cl)c2cc(Cl)ccc12 [DD-MC-II]
Pass

Give recorded Ames test (−)S9 1 mg/pl.. O=C(O)c1nn(Cc2ccc(F)cc2F)c2ccc(C(F)(F)F)cc12 [JWS-2-1]
Mar-

====

System: Salmonella Typhimurium TA 100
Test: Ames test for mutagenicity (plate assay, colony count)
Conditions: (−)S9 mix, 10 mg/pl., 48 hours at 37° C.
parameter: Ames test (−)S9 10 mg/pl.

// solved cases for Ames test (−)S9 10 mg/pl. follow
{"chem smiles": "NNC(=O)c1nn(Cc2ccc(Cl)cc2Cl)c2cc(C(F)(F)F)cnc12", "Ames test (−)S9 10 mg/pl.": "Pass"}
{"chem smiles": "COC(=O)c1nn(Cc2ccc(F)cc2Cl)c2cc(Cl)ccc12", "Ames test (−)S9 10 mg/pl.": "Mar-"}
{"chem smiles": "O=C(O)/C=C/c1nn(Cc2ccc(F)cc2F)c2ccc(C(F)(F)F)cc12", "Ames test (−)S9 10 mg/pl.": "Pass"}
{"chem smiles": "O=C(O)c1nn(Cc2ccc(Cl)cc2Cl)c2ncccc12", "Ames test (−)S9 10 mg/pl.": "Pass"}
{"chem smiles": "Cc1ccc2c(C(=O)O)nn(Cc3ccc(Cl)cc3Cl)c2c1", "Ames test (−)S9 10 mg/pl.": "Pass"}

The record that follows has no Ames test (−)S9 10 mg/pl. shown yet.
Give recorded Ames test (−)S9 10 mg/pl.. O=C(O)c1nn(Cc2ccc(Cl)cc2Cl)c2cnccc12
Pass

====

Tested on: Salmonella Typhimurium TA 100
Experiment: Ames test for mutagenicity (plate assay, colony count)
Details: (+)S9 mix, 10 mg/pl., 48 hours at 37° C.
parameter: Ames test (+)S9 10 mg/pl.

{"chem smiles": "O=C(O)/C=C/c1nn(Cc2ccc(Cl)cc2Cl)c2ccc(C(F)(F)F)cc12", "result": "Pass"}
{"chem smiles": "NNC(=O)c1nn(Cc2ccc(Cl)cc2Cl)c2ncccc12", "result": "Pass"}
{"chem smiles": "NNC(=O)c1nn(Cc2ccc(Cl)cc2Cl)c2cc(F)ccc12", "result": "Pass"}
{"chem smiles": "O=C(O)c1nn(Cc2ccc(Cl)cc2Cl)c2ncccc12", "result": "Pass"}
{"chem smiles": "O=C(O)/C=C/c1nn(Cc2ccc(Cl)cc2Cl)c2cc(Cl)ccc12", "result": "Pass"}
{"chem smiles": "NNC(=O)c1nn(Cc2ccc(Cl)cc2Cl)c2cc(C(F)(F)F)ccc12", "result": "Pass"}
{"chem smiles": "Cc1ccc2c(/C=C/C(=O)O)nn(Cc3ccc(Cl)cc3Cl)c2c1", "result": "Pass"}
{"chem smiles": "O=C(O)c1nn(Cc2ccc(Cl)cc2Cl)c2ccc(C(F)(F)F)cc12", "result": "Pass"}

The record that follows has no Ames test (+)S9 10 mg/pl. shown yet.
Give recorded Ames test (+)S9 10 mg/pl.. O=C(O)/C=C/c1nn(Cc2ccc(F)cc2F)c2ccc(C(F)(F)F)cc12
Pass

====

System: Salmonella Typhimurium TA 100
Test: Ames test for mutagenicity (plate assay, colony count)
Details: (−)S9 mix, 1 mg/pl., 48 hours at 37° C.
parameter: Ames test (−)S9 1 mg/pl.

// solved cases for Ames test (−)S9 1 mg/pl. follow
{"chem smiles": "O=C(O)c1nn(Cc2ccc(F)cc2F)c2cc(C(F)(F)F)ccc12", "Ames test (−)S9 1 mg/pl.": "Pass"}
{"chem smiles": "COC(=O)c1nn(Cc2ccc(Cl)cc2Cl)c2ccc(OC)nc12", "Ames test (−)S9 1 mg/pl.": "Pass"}
{"chem smiles": "O=C(O)c1nn(Cc2ccc(F)cc2Cl)c2cc(C(F)(F)F)ccc12", "Ames test (−)S9 1 mg/pl.": "Fail"}
{"chem smiles": "COC(=O)c1nn(Cc2ccc(Cl)cc2Cl)c2cccnc12", "Ames test (−)S9 1 mg/pl.": "Pass"}
{"chem smiles": "NNC(=O)c1nn(Cc2ccc(Cl)cc2Cl)c2ccc(C(F)(F)F)cc12", "Ames test (−)S9 1 mg/pl.": "Pass"}
{"chem smiles": "COC(=O)c1nn(Cc2ccc(F)cc2F)c2ccc(C(F)(F)F)cc12", "Ames test (−)S9 1 mg/pl.": "Fail"}
{"chem smiles": "NNC(=O)c1nn(Cc2ccc(Cl)cc2Cl)c2cc(C(F)(F)F)ccc12", "Ames test (−)S9 1 mg/pl.": "Pass"}
{"chem smiles": "COc1ccc2c(n1)c(C(=O)O)nn2Cc1ccc(Cl)cc1Cl", "Ames test (−)S9 1 mg/pl.": "Pass"}
{"chem smiles": "COC(=O)c1nn(Cc2ccc(Cl)cc2Cl)c2cnccc12", "Ames test (−)S9 1 mg/pl.": "Pass"}
{"chem smiles": "O=C(O)/C=C/c1nn(Cc2ccc(Cl)cc2Cl)c2cc(C(F)(F)F)ccc12", "Ames test (−)S9 1 mg/pl.": "Pass"}

Give recorded Ames test (−)S9 1 mg/pl.. NNC(=O)c1nn(Cc2ccc(F)cc2F)c2cc(Cl)ccc12
Pass

Give recorded Ames test (−)S9 1 mg/pl.. O=C(O)c1nn(Cc2ccc(Cl)cc2Cl)c2ncccc12
Pass

Give recorded Ames test (−)S9 1 mg/pl.. O=C(O)c1nn(Cc2ccc(Cl)cc2Cl)c2ccc(C(F)(F)F)cc12
Pass

Give recorded Ames test (−)S9 1 mg/pl.. COC(=O)c1nn(Cc2ccc(Cl)cc2Cl)c2ccccc12
Pass

Give recorded Ames test (−)S9 1 mg/pl.. O=C(O)c1nn(Cc2ccc(Cl)cc2Cl)c2cc(Cl)ccc12
Pass

Give recorded Ames test (−)S9 1 mg/pl.. NNC(=O)c1nn(Cc2ccc(Cl)cc2Cl)c2cccnc12
Fail

Give recorded Ames test (−)S9 1 mg/pl.. O=C(O)c1nn(Cc2ccc(F)cc2F)c2cc(Cl)ccc12
Fail

Give recorded Ames test (−)S9 1 mg/pl.. NNC(=O)c1nn(Cc2ccc(F)cc2Cl)c2cc(Cl)ccc12
Pass

Give recorded Ames test (−)S9 1 mg/pl.. NNC(=O)c1nn(Cc2ccc(Cl)cc2Cl)c2cc(C(F)(F)F)cnc12
Pass

Give recorded Ames test (−)S9 1 mg/pl.. NNC(=O)c1nn(Cc2ccc(F)cc2F)c2ccc(C(F)(F)F)cc12
Pass

Give recorded Ames test (−)S9 1 mg/pl.. O=C(O)c1nn(Cc2ccc(Cl)cc2Cl)c2cc(C(F)(F)F)ccc12
Pass

Give recorded Ames test (−)S9 1 mg/pl.. O=C(O)/C=C/c1nn(Cc2ccc(Cl)cc2Cl)c2cc(F)ccc12
Pass

Give recorded Ames test (−)S9 1 mg/pl.. O=C(O)/C=C/c1nn(Cc2ccc(Cl)cc2Cl)c2ncccc12
Fail

Give recorded Ames test (−)S9 1 mg/pl.. O=C(O)/C=C/c1nn(Cc2ccc(F)cc2F)c2ccc(C(F)(F)F)cc12
Pass

Give recorded Ames test (−)S9 1 mg/pl.. NNC(=O)c1nn(Cc2ccc(F)cc2F)c2cc(C(F)(F)F)ccc12
Pass

Give recorded Ames test (−)S9 1 mg/pl.. O=C(O)/C=C/c1nn(Cc2ccc(F)cc2Cl)c2cc(C(F)(F)F)ccc12
Pass

Give recorded Ames test (−)S9 1 mg/pl.. O=C(O)/C=C/c1nn(Cc2ccc(Cl)cc2Cl)c2cc(Cl)ccc12
Pass

Give recorded Ames test (−)S9 1 mg/pl.. NNC(=O)c1nn(Cc2ccc(Cl)cc2Cl)c2cc(F)ccc12
Pass

====

Tested on: Male Long Evans rats
Experiment: In vivo antispermatogenic testing in Long Evans rats
Conditions: 200 mg/kg single i.p. injection; […]
parameter: Mortality (200 mg/kg)

Fill in: Mortality (200 mg/kg) on Male Long Evans rats, entry Cc1ccc2c(/C=C/C(=O)O)nn(Cc3ccc(Cl)cc3Cl)c2c1 [TH-2-192]
4/5

Fill in: Mortality (200 mg/kg) on Male Long Evans rats, entry O=C(O)c1nn(Cc2ccc(F)cc2F)c2cc(C(F)(F)F)ccc12 [JWS-1-276]
0/5

Fill in: Mortality (200 mg/kg) on Male Long Evans rats, entry O=C(O)c1nn(Cc2ccc(Cl)cc2Cl)c2cc(Cl)ccc12 [DD-MC-I]
0/5

Fill in: Mortality (200 mg/kg) on Male Long Evans rats, entry COC(=O)c1nn(Cc2ccc(F)cc2F)c2cc(Cl)ccc12 [JWS-1-280]
0/5

Fill in: Mortality (200 mg/kg) on Male Long Evans rats, entry NNC(=O)c1nn(Cc2ccc(Cl)cc2Cl)c2ccccc12 [AF2364, reference compound]
0/5

Fill in: Mortality (200 mg/kg) on Male Long Evans rats, entry Cc1ccc2c(C(=O)NN)nn(Cc3ccc(Cl)cc3Cl)c2c1 [TH-2-179]
0/5

Fill in: Mortality (200 mg/kg) on Male Long Evans rats, entry COC(=O)c1nn(Cc2ccc(Cl)cc2Cl)c2cccnc12 [JWS-1-110]
0/5

Fill in: Mortality (200 mg/kg) on Male Long Evans rats, entry NNC(=O)c1nn(Cc2ccc(Cl)cc2Cl)c2cc(C(F)(F)F)ccc12 [RC-MC-101]
0/5

Fill in: Mortality (200 mg/kg) on Male Long Evans rats, entry O=C(O)/C=C/c1nn(Cc2ccc(Cl)cc2Cl)c2cc(F)ccc12 [JWS-1-170]
0/5

Fill in: Mortality (200 mg/kg) on Male Long Evans rats, entry COC(=O)c1nn(Cc2ccc(Cl)cc2Cl)c2cnccc12 [JWS-1-130]
0/5

Fill in: Mortality (200 mg/kg) on Male Long Evans rats, entry NNC(=O)c1nn(Cc2ccc(Cl)cc2Cl)c2ncccc12 [RC-MC-60]
0/5

Fill in: Mortality (200 mg/kg) on Male Long Evans rats, entry O=C(O)c1nn(Cc2ccc(Cl)cc2Cl)c2cccnc12 [JWS-1-114]
0/5

Fill in: Mortality (200 mg/kg) on Male Long Evans rats, entry O=C(O)c1nn(Cc2ccc(Cl)cc2Cl)c2ncccc12 [RC-MC-86]
0/5

Fill in: Mortality (200 mg/kg) on Male Long Evans rats, entry COC(=O)c1nn(Cc2ccc(Cl)cc2Cl)c2ccc(C(F)(F)F)cc12 [JWS-1-254]
0/5

Fill in: Mortality (200 mg/kg) on Male Long Evans rats, entry COC(=O)c1nn(Cc2ccc(F)cc2F)c2cc(C(F)(F)F)ccc12 [JWS-1-270]
0/5

Fill in: Mortality (200 mg/kg) on Male Long Evans rats, entry O=C(O)c1nn(Cc2ccc(Cl)cc2Cl)c2cc(C(F)(F)F)ccc12 [RC-MC-100]
0/5

Fill in: Mortality (200 mg/kg) on Male Long Evans rats, entry COC(=O)c1nn(Cc2ccc(Cl)cc2Cl)c2ccccc12 [RC-MC-30]
0/5

Fill in: Mortality (200 mg/kg) on Male Long Evans rats, entry NNC(=O)c1nn(Cc2ccc(F)cc2F)c2cc(C(F)(F)F)ccc12 [JWS-1-274]
0/5

Fill in: Mortality (200 mg/kg) on Male Long Evans rats, entry O=C(O)/C=C/c1nn(Cc2ccc(Cl)cc2Cl)c2cc(C(F)(F)F)ccc12 [RC-MC-110]
3/5
